Data provenance is the nanobody polyreactivity screen of Harvey et al. (2022).

Experiment: yeast display, Sf9 membrane polyspecificity reagent, FACS + sequencing; frameworks hold sequencing errors
parameter: polyreactivity (PSR sort gate)

// below: answered sequences
1. QVQLQESGVGLVQAGGSLRLSCAASGYITARDAMVWYRQAPGKEREFVATIASGTTTYYADSVKGSFTISRDNEENTVYLQTNSLKPEDTAVYYCAAPTIQIYPFYYWGQGTQVTVSS :: high polyreactivity
2. QVQLVESGGGLVQAGGSLRLSCAASGITFGANALGWYRQAPGKERELVAEITWSGGDTYYADSVKGRFTISRDNAKNTVYLQMNSLKPEDTAVYYCNALQPGLGSPLGEYDYWGQGTQVTVSS :: low polyreactivity
3. QVQLVESGGGLVQAGGSLRLSCAASGRTIYYYAMGWYRQAPGKERELVAAISRSGSSTFYADSVKGRFTISRDNAKNTVYLQMNSLKPEDTAVYYCAADDYSRRVYFFFGAYDYWGQGTQVTVSS :: high polyreactivity
4. QVQLVESGGGLVQAGGSLRLSCAASGIIFDYNAMGWYRQAPGKERELVAAITSTDNTNYADSVKGRFTISRDNAKNTVYLQMNSLKPEDTAVYYCNTDYLLCVVYAMDYCGQGTQVTVSS :: low polyreactivity
5. QVQLVESGGGLVQAGGSLRLSCAASGLTSIHYMGWYRQAPGKERELVATITSSTGSTYYADSVKGRFTISRDNAKNTVYLQMNSLKPEDTAVYYCAAESFGADGPYQPSYDYWGQGTQVTVSS :: low polyreactivity
6. QVQLVESGGGLVQAGGSLRLSCAASGRTFGRYAMVWYRQAPGKEREFVASISRRGGTTYYADSVKGRFTISRDNAKNSVYLQMNSLKPEDTAVYYCNADRTVIYDYEYWGQGTQVTVSS :: low polyreactivity

Provide the reported polyreactivity (PSR sort gate) of each entry below, same order.
1. QVQLVESGGGLVQAGGSLRLSCAASGFTFVTYAMGWYRQAPGKERELVAAISSSGRTYYADSVKGRFTISRDNAKNTVYLQMNSLKPEDTAVYYCAVQGAWRSFYYWGQGTQVTVSS
2. QVQLVESGGGLVQAGGSLRLSCAASGSIFIYNAMGWYRPAPGKETEFVDTINSGTVTKYADSVKGRFTISRDNAKNTVYLQMNSLKPEDTAVYYCATVFDRQYSTQYQVSRYDYWVQGTQVTVSS

Outgoing:
high polyreactivity
low polyreactivity

Provide the reported polyreactivity (PSR sort gate) of each entry below, same order.
1. QVQLVESGGGLVQAGGSLRLSCAASGRTFFANAMGWYRQAPGKERELVAAISGSGDRTYYADSVKGRFTISRDNAKNTVYLQMNSLKPEDTAVYYCAAAGWSARGYNYWGQGTQVTVSS
2. QVQLVESGGGLVQAGGSLRLSCAASGSIFEPYTMGWYRQAPGKERELVAAITGSGGSTFYADSVKGRFTISRDNAKNTVYLQMNSLKPEDTAVYYCNAFAYPYTDVDYWGQGTQVTVSS
3. QDQHVESGGGLVQAGGSLRLSCAASGSTFDAYAMGWYRQAPGKERELVAAISWSDTTTYYADSVKGRFTISRDNAKNTVYLQMNSLKPEDTAVYYCADEYYFTEGSYTSDYWGQGTQVTVSS

Outgoing:
1: high polyreactivity; 2: low polyreactivity; 3: high polyreactivity

---

Experiment: yeast display, Sf9 membrane polyspecificity reagent, FACS + sequencing; frameworks hold sequencing errors
parameter: polyreactivity (PSR sort gate)

1) QVQLVESGGGLVQAGGSLRLSCAASGSIFAYYAMGWYRQAPGKEREIVAAISKRGGRTYYADSVKGRFTISRDNAKNTVYLQMNSLKPEDTAVYYCATVGVRTNLNRYGYWGQGTQVTVSS :: high polyreactivity
2) QVQLLESGGGLVQAGGSLRLSCAASGFNFYYYAMGWYRQAPGKERELVAAISKSGGSTHYADSVKGRFTISRDNAKHTVYLQMNSLKPEDTAVYYCAARYILSKYGSGVRYNYWGQGTQVTVSS :: high polyreactivity
3) QVQLVESGGGLVQAGGSLRLSCAASGRTLTFYAMGWYRQAPVKERELVAAISRRAGSTYYADSVKGRFTISRDTAKNTVYLQMNSLKPEDTAVYYCAREPYSASHRYCLYRGYDYWGQGTQVTVSS :: low polyreactivity
4) QVQLQESGGGLVQPGGSLRLSCAATGTISDSGLMGWYRQAPGKERELVSGISSGGITQYADSVNGRFTISRDNAKNTVYLQMNSLKPEDTAVYWGQGTQVTVSS :: low polyreactivity

Then there is this sequence:
Record summary for `QVQLVESGGGLVQAGGSLRLSCAASGSTFSNYAMGWYRQAPGKERELVAAISRRGTSTYYADSVKGRFTISRDNAKNTVYLQMNSLKPEDTAVYYCAADYFRYTYDYWGQGTQVTVSS` : reported polyreactivity (PSR sort gate) = high polyreactivity
